Test: NCI Yeast Anticancer Drug Screen. Data for the mec2-1 strain (AID 157)
Details: S. cerevisiae mec2-1 strain, at 50.0 µM (retest, dose inferred, filed as 5.0)
The panel holds about 79,000 compounds, 15% with a hit somewhere; the sample as a whole holds those more often. The source made the active and inactive calls. No stated cut-off is given here; in the data, active means growth inhibition above about 70%; inactive means the rest.
Respond with a class label; see active, inactive

See these solved cases before continuing.
# input Identify the outcome logged in this assay for the molecule shown: COC(=O)c1ccccc1CC1Cc2cccc(C)c2C1=O (stereo unspecified)
# output inactive

# input Short answer needed: outcome of this test for `COc1ccc2c(c1)CCCN2S(=O)(=O)c1ccc(N)cc1` ?
# output inactive

# input Check the results log: what was the call for `Nc1ccc(SCCCc2c(N)nc(N)nc2N)cc1` ?
# output inactive

# input Hey, what did the test say about `Cc1ccc(S(=O)(=O)N/N=C/Cc2ccccc2)cc1` ?
# output active

# input // outcome(item) with item = O=C(O)C(Cc1cc(I)c(O)c(I)c1)c1ccccc1 (stereo unspecified)
# output inactive

Read the next record carefully.
# input Per the records of this test, what outcome belongs to `CCCC/C=C(\CCCNCCCC)[Si](C)(C)C` ?
# output active

====

Test: NCI Yeast Anticancer Drug Screen. Data for the rad50 strain (AID 155);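 further: 0% = growth of vehicle-only cultures of the same strain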
Conditions: S. cerevisiae rad50 strain growth inhibition; at 50.0 µM
The panel holds about 79,000 compounds, 15% with a hit somewhere; the sample as a whole holds those more often. The source made the active and inactive calls. No stated cut-off is given here; in the data, active means growth inhibition above about 70%; inactive means the rest.
Mark one answer only. Choices: t = active, f = inactive

Sample answers from the record:
# input Short answer needed: outcome of this test for CNC1=C2NC(=O)/C(C)=C\C=C\C(C)C(O)C(C)C(O)C(C)C(OC(C)=O)C(C)C(OC)/C=C/OC3(C)Oc4c(C)c(O)c(c(c4C3=O)C1=O)C2=O (stereo not given) ?
# output f

# input # fetch the recorded call for `CCCCCCCCCCCCCCCCN(C)c1ccc(S(=O)(=O)O)cc1[N+](=O)[O-]` here
# output t

# input Tell me the assay call for `CCCCCCCC[N+](C)(C)Cc1ccc(C[N+](C)(C)CCCCCCCC)cc1` please.
# output f

# input Give the logged outcome of this assay for the following compound: CCCCCCCC(CC(=O)O)OC(=O)CC(CCCCCCC)OC1OC(C)C(O)C(O)C1OC1OC(C)C(O)C(O)C1O (stereo not given)
# output t

# input Identify the outcome logged in this assay for the compound shown: `Cc1cc(NC(=S)SCc2ccc(Cl)cc2)ccc1Br`
# output t

# input For `CN(C)Cc1ccc(C(C)(C)C)cc1-c1cc(C(C)(C)C)ccc1CN(C)C` , what call appears in the results of this test?
# output f

New cases:
# input Which outcome was assigned to `O=C(O)CCSc1ncnc2nc[nH]c12` in this test?
# output f

# input Name the outcome recorded for CS(=O)c1cc(=O)c2ccccc2s1 (stereo not given) in the assay.
# output t

# input Recorded test outcome, item `CCCCN1C(=O)C[C@H]2[C@@H]3CCc4cc(OCCN5CCCC5)ccc4[C@H]3CC[C@]2(C)C1=O`
# output f

# input Recorded call for `CC(=O)OC(OC(C)=O)c1ccc2ccc3cccc4ccc1c2c34` ?
# output f

====

// reported growth inhibition per item
Assay: NCI Yeast Anticancer Drug Screen. Data for the cln2 rad14 strain (AID 165);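 further: 0% = growth equal to vehicle treated cultures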
Settings: S. cerevisiae cln2 rad14 strain, at 50.0 µM (retest, dose inferred, filed as 5.0), active compounds read high
About 79,000 compounds went through this panel and 15% of them were active in at least one assay; those are over-represented in the sample as a whole.
Write down the numeric answer in % and omit the unit.

The following compounds have reported results that may help.
# input Bench note: what growth inhibition did `Cc1cc(N=O)c(NO)cc1C` show?
# output 16

# input Reported growth inhibition for `CCN(CC)CCCC(=O)Nc1cc(OC)cc2cccnc12` : what is it?
# output -1

# input // growth inhibition lookup, key: `CN(C)N=Nc1c(-c2ccccc2)n[nH]c1-c1ccccc1`
# output 99

# input // query growth inhibition value for entry `O=C1c2ccccc2C(=O)c2c1ccc(O)c2O`
# output 63

# input Which growth inhibition reading was recorded for the compound `O=C1OC2(CCCCC2)OC(=O)C1=Cc1ccc([N+](=O)[O-])s1` ?
# output 61

New cases:
# input What value of growth inhibition has been recorded for this entry: `O=C1/C(=C/c2ccc3c(c2)OCO3)Sc2scc(-c3ccc(O)c(O)c3)[n+]21`
# output 98

# input Item Cc1c(N)nc(C(CC(N)=O)NCC(N)C(N)=O)nc1C(=O)NC(C(=O)NC(C)C(O)C(C)C(=O)NC(C(=O)NCCc1nc(-c2nc(C(=O)NCCCNCCCc3ccccn3)cs2)cs1)C(C)O)C(OC1OC(CO)C(O)C(O)C1OC1OC(CO)C(O)C(OC(N)=O)C1O)c1cnc[nH]1 (stereo unspecified) has what recorded growth inhibition?
# output 98

# input Report growth inhibition for CC1=NN(c2ccccc2)C(=O)C1N=Nc1cc(Cl)cc(S(=O)(=O)O)c1O (stereo unspecified) please.
# output 30

# input Quick check: growth inhibition of COc1cccc(N2CCN(CC(O)COc3cc4c(c5c3CCCC5)CCCC4)CC2)c1 (stereo unspecified) ?
# output 94

# input Consider the compound shown here: `CCOC(=O)[C@@H](F)[C@H](Br)C(=O)OCC` What is its recorded growth inhibition?
# output 100

# input Entry `CCCN(CCC)C(=S)N/N=C/c1cccc(C)n1` has what growth inhibition?
# output 100

# input Entry COc1cc(C2c3cc4c(cc3[C@@H](OCCN)[C@H]3COC(=O)C23)OCO4)cc(OC)c1O (stereo partly specified) : reported growth inhibition = ?
# output 28
